System: OVCAR-8 ovarian
ASSAY NOTES: NCI tumour cell line growth inhibition, 48 h; in the data active = GI50 below about 0.43 µM; inactive = the rest
// classify into 1 for active, -1 for inactive

Query: Any idea what this test logged for NC(CSC(c1ccccc1)(c1ccccc1)c1ccc(Br)cc1)C(=O)O (centres undefined) ?
Reply: 1

Query: Returns: the outcome recorded for `COc1cc(-c2nc3cc(Cl)c(Cl)cc3[nH]2)ccc1OCC(=O)N=Nc1c(O)[nH]c2ccccc12` in this assay.
Reply: 1

Query: Dear all, I need the recorded test outcome for `Cc1cc(=O)[nH]c2c1C(=O)C(=O)C=C2` , thank you.
Reply: -1

Query: In this assay, the call recorded for Nc1c2c(c(O)c3c1=C(CO)C=N3)=NCCS2=O (centres undefined) was what?
Reply: -1
